# assay.target: Human IP6K1 (Homo sapiens)
# Construct: GST (N, cleaved yes); made in house; host or cells: C43 E. coli, pGEX-6P-2
# Sequence (Q92551 whole entry): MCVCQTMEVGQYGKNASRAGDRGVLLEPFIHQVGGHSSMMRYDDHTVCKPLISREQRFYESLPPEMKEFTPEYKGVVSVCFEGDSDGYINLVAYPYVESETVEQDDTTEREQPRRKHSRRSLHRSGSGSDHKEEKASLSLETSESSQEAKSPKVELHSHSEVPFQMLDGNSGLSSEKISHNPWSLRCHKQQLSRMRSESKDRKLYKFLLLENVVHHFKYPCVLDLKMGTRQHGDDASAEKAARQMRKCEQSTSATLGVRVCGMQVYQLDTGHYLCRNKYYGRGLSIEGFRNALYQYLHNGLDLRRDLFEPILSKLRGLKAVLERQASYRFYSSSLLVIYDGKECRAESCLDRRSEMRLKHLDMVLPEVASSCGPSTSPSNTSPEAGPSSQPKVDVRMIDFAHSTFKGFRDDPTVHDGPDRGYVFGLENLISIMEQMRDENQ
# assay.text: IP6K1 high-throughput screen of the Sigma LOPAC (ADP-Glo Max, single point);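 further: final compound concentration 10µM in 5% DMSO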
# Type: biochemical
# setup.conditions: LOPAC single-point screen, ADP-Glo Max luminescence raw signal per well
Where a name gives a salt, the structure may show the parent alone.
Param label: returns Condition met when Raw Signal < 60000, returns Condition not met otherwise, including exact equality.

Reference set, count: 2
compound | label
Cc1ccc(C(=O)Nc2ccc(S(=O)(=O)O)c3cc(S(=O)(=O)O)cc(S(=O)(=O)O)c23)cc1NC(=O)c1cccc(NC(=O)Nc2cccc(C(=O)Nc3cc(C(=O)Nc4ccc(S(=O)(=O)O)c5cc(S(=O)(=O)O)cc(S(=O)(=O)O)c45)ccc3C)c2)c1 [Suramin hexasodium] | Condition met
N#CC(C#N)=Cc1ccc([N+](=O)[O-])c(O)c1 | Condition not met

Task: A record lists CCN(CC)CCOCCOC(=O)C1(c2ccccc2)CCCC1 [Carbetapentane citrate] . Is its Raw Signal below 60000?
Output: Condition not met

Task: Next: CCc1cc(Cl)c(O)c(C(=O)NC[C@@H]2CCCN2CC)c1OC.Cl [S-(-)-Eticlopride hydrochloride]
Output: Condition not met

Task: Note, next up: C#CCN(C)CCCOc1ccc(Cl)cc1Cl [Clorgyline hydrochloride]
Output: Condition met

Task: Follow-up entry: `O=[N+]([O-])c1ccc(O[C@@H]2O[C@H](CO)[C@@H](O)[C@H](O)[C@H]2F)c([N+](=O)[O-])c1`
Output: Condition met

Task: Likewise for CN1CCc2cccc3c2[C@H]1Cc1ccc(O)c(O)c1-3 [Apomorphine hydrochloride hemihydrate] ?
Output: Condition met
